Species: Oryctolagus cuniculus
Assay Method Text: Tested for effective refractory period measured at a pacing rate of 3 Hz in vitro with rabbit heart tissue preparations.
Format: functional
Set-up: unit: %
ERP3 strictly less than 20 = YES. Otherwise NO.

For orientation, consider the following solved cases.
CCCCCCN(CC)CCCC(O)c1ccc(NS(C)(=O)=O)cc1 (stereo unspecified); YES
CS(=O)(=O)Nc1ccc(C(O)CCCN2CCCCCC2)cc1 (stereo unspecified); YES
CCCCCCC[N+](CC)(CC)CCCCc1ccc(Cl)cc1.O=P([O-])(O)O [CLOFILIUM PHOSPHATE]; YES
CCCCCCCN(CC)CC(O)c1ccc(NS(C)(=O)=O)cc1 (stereo unspecified); NO
CCCCCCCCN(CC)CCCC(O)c1ccc(NS(C)(=O)=O)cc1 (stereo unspecified); YES

Consider the record given below.
Q. Consider CCCCCCCN(CC)CCCCc1ccc(NS(C)(=O)=O)cc1 . Does its ERP3 lie strictly below 20?
A. YES

----------
Species: Oryctolagus cuniculus
Assay Method Text: Tested for effective refractory period measured at a pacing rate of 1 Hz in vitro with rabbit heart tissue preparations.
Format: functional
# binning rule on ERP1: bin 0: < 10; bin 1: ≥ 10 and < 20; bin 2: ≥ 20

CCCCCCCN(C)CCCC(O)c1ccc(NS(C)(=O)=O)cc1 (centres undefined); bin 1
CCCCCCCN(CC)CCCC(O)c1ccc(Cl)cc1.Cl (centres undefined); bin 1
CCCCCCCCCCN(CC)CCCC(O)c1ccc(NS(C)(=O)=O)cc1 (centres undefined); bin 1
CC(C)NCC(O)c1ccc(NS(C)(=O)=O)cc1.Cl (centres undefined) [SOTALOL HYDROCHLORIDE]; bin 0
CCCCN(CCCC)CCCC(O)c1ccc(NS(C)(=O)=O)cc1 (centres undefined); bin 0

Q. Hi there! Could you help me figure out the category for CCCCCCCCN(CC)CCCC(O)c1ccc(NS(C)(=O)=O)cc1 (centres undefined) please?
A. bin 0

Q. Then what about the compound CCCCCN(CC)CCCC(O)c1ccc(NS(C)(=O)=O)cc1 (centres undefined) ?
A. bin 2

Q. Moving on to the next compound: CS(=O)(=O)Nc1ccc(C(O)CCCN2CCCCCCC2)cc1 (centres undefined)
A. bin 2

Q. What do we get for CS(=O)(=O)Nc1ccc(C(O)CCCN2CCCCCC2)cc1 (centres undefined) ?
A. bin 1

Q. Further, for CCCCCCCN(CC)CCCC(O)c1cccc(NS(C)(=O)=O)c1 (centres undefined) ?
A. bin 2

Q. Another compound to look at: CCCCCCC[N+](CC)(CC)CCCCc1ccc(Cl)cc1.O=P([O-])(O)O [CLOFILIUM PHOSPHATE]
A. bin 0

Q. Request: CCCCCCCN(CC)CCCC(=O)c1ccc(NS(C)(=O)=O)cc1
A. bin 0

Q. Here is the next compound: CCCCCCN(CC)CCCC(O)c1ccc(NS(C)(=O)=O)cc1 (centres undefined)
A. bin 1

Q. # iterate: CCCCCCCN(CC)CCC(O)c1ccc(NS(C)(=O)=O)cc1 (centres undefined)
A. bin 2

Q. Repeat for the following compound: CCCCCCCN(CC)CC(O)c1ccc(NS(C)(=O)=O)cc1 (centres undefined)
A. bin 2

Q. Next up: CCCCCCCN(CC)CCCC(O)c1ccc(NS(C)(=O)=O)cc1 (centres undefined) [IBUTILIDE]
A. bin 1

Q. Please do the same for CC1CCN(CCCC(O)c2ccc(NS(C)(=O)=O)cc2)CC1 (centres undefined) as well.
A. bin 0

Q. Consider next the compound CCCCCCCNCCCC(O)c1ccc(NS(C)(=O)=O)cc1 (centres undefined) in the same way.
A. bin 0

Q. Same for CCCCCCCN(CC)CCCCc1ccc(NS(C)(=O)=O)cc1
A. bin 2

Numbers sourced from ChEMBL document CHEMBL1125736.
